Measured growth inhibition (GI), listed per entry.
biological target: ATP-dependent translocase ABCB1 (Homo sapiens, UniProt P08183); assay: Inhibition of P-glycoprotein in Homo sapiens (human) MCF7/ADR cells assessed as doxorubicin-induced growth inhibition after 48 hr by SRB assay (Doxorubicin Rvb = 5.1 +/-1.2%); assay type: cell-based; conditions: nci/adr-res
Sequence (P08183 whole entry): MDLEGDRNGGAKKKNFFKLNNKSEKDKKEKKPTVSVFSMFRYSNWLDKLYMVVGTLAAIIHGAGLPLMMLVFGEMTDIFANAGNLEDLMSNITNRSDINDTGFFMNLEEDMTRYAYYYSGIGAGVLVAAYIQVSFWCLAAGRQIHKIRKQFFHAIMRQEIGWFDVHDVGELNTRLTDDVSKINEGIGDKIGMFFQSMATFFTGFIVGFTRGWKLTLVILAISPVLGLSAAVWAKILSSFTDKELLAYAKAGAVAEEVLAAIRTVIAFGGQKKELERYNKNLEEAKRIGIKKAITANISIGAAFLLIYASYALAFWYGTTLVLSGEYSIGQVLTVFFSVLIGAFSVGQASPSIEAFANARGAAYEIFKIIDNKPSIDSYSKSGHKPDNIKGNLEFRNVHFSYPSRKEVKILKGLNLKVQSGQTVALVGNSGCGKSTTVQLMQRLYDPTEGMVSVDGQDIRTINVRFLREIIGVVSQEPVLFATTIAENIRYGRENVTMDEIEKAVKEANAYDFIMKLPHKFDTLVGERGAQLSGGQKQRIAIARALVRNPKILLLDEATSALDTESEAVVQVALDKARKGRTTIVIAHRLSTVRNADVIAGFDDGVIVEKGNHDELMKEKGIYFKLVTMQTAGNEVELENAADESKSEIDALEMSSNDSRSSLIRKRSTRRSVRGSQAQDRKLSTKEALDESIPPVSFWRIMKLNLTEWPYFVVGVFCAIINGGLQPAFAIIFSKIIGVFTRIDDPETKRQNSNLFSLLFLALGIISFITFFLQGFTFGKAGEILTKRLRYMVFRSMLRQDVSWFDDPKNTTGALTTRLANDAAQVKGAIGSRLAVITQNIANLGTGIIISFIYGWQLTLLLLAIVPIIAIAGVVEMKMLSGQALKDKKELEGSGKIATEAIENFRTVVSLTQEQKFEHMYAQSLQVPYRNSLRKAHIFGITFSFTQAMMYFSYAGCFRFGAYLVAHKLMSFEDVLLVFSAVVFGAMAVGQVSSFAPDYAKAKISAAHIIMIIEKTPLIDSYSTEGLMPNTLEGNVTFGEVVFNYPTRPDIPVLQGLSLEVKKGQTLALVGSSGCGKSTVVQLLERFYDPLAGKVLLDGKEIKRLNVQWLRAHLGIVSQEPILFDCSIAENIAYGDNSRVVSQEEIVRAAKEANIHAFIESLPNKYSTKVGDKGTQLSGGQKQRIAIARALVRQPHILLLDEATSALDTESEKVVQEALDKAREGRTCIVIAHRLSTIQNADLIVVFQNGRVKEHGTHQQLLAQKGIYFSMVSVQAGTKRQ
Parameter: growth inhibition (GI) (%)

[
  {
    "Molecule": "COC(=O)C(CNCCc1ccc(OC)c(OC)c1)C(O)c1ccc([N+](=O)[O-])cc1 (stereo not given)",
    "Parameter": "growth inhibition (GI)",
    "Unit descriptor": "%",
    "Endpoint value": 12.9
  },
  {
    "Molecule": "COC(=O)C(CNCCc1ccc(OC)c(OC)c1)Cc1ccccc1 (racemic)",
    "Parameter": "growth inhibition (GI)",
    "Unit descriptor": "%",
    "Endpoint value": 3.2
  },
  {
    "Molecule": "COC(=O)C(CNCCc1ccc(OC)c(OC)c1)C(O)c1ccc2c(c1)OCO2 (mixture of isomers)",
    "Parameter": "growth inhibition (GI)",
    "Unit descriptor": "%",
    "Endpoint value": 10.4
  },
  {
    "Molecule": "COC(=O)C(CNCCc1ccc(OC)c(OC)c1)Cc1ccc2c(c1)OCO2 (racemic)",
    "Parameter": "growth inhibition (GI)",
    "Unit descriptor": "%",
    "Endpoint value": 5.8
  },
  {
    "Molecule": "COC(=O)C(CNCCc1ccc(OC)c(OC)c1)C(O)c1ccccc1 (mixture of isomers)",
    "Parameter": "growth inhibition (GI)",
    "Unit descriptor": "%",
    "Endpoint value": 11.8
  },
  {
    "Molecule": "COC(=O)/C(=C\\c1ccccc1)CNCCc1ccc(OC)c(OC)c1",
    "Parameter": "growth inhibition (GI)",
    "Unit descriptor": "%",
    "Endpoint value": 16.1
  },
  {
    "Molecule": "COC(=O)C(CNCCc1ccc(OC)c(OC)c1)C(O)c1ccc(OC)c(OC)c1 (mixture of isomers)",
    "Parameter": "growth inhibition (GI)",
    "Unit descriptor": "%",
    "Endpoint value": 6.8
  },
  {
    "Molecule": "COC(=O)/C(=C\\c1ccc(OC)c(OC)c1)CNCCc1ccc(OC)c(OC)c1",
    "Parameter": "growth inhibition (GI)",
    "Unit descriptor": "%",
    "Endpoint value": 87.7
  },
  {
    "Molecule": "COC(=O)C(CNCCc1ccc(OC)c(OC)c1)Cc1ccc(OC)c(OC)c1 (racemic)",
    "Parameter": "growth inhibition (GI)",
    "Unit descriptor": "%",
    "Endpoint value": 6.9
  },
  {
    "Molecule": "COC(=O)/C(=C\\c1ccc2c(c1)OCO2)CNCCc1ccc(OC)c(OC)c1",
    "Parameter": "growth inhibition (GI)",
    "Unit descriptor": "%",
    "Endpoint value": 43.3
  }
]
